molecular target: HLA-A*24 MHC class I molecule (peptide-receptive after UV-ligand exchange) (human); test: UV-ligand exchange, anti-b2m ELISA; grade of peptide exchange yield (>=10% = +; >=20% = ++; >=50 = +++; >=75% = ++++)
parameter: peptide exchange yield

Example binders with recorded peptide exchange yield:
binder: AFSPDSHYLLF [peptide … (SEQ ID No. 34)]
reported result: 50 to 75%
//
binder: GYLQGLVSF [peptide … (SEQ ID No. 27)]
reported result: > 75%
//
binder: RYGSPINTF [peptide … (SEQ ID No. 29)]
reported result: 50 to 75%

# ---- query binder ----
INPUT: # input binder: AYSEKVTEF [peptide … (SEQ ID No. 54)] ; wanted: its peptide exchange yield
OUTPUT: 50 to 75%
